FYI, the data here is from PubChem BioAssay (NCI).

Test system: SK-OV-3 ovarian
Test: NCI-60 one-dose screen, 48 h
Details: 10 µM unless noted
The panel holds about 83,000 compounds, 20% with a hit somewhere; the sample as a whole holds those more often. Calls of active or inactive are those of the source. How the source made its calls: active means growth percent below 10; inactive means the rest.
Use one of these outcomes when replying: active, inactive

Example results:
COc1ccc(C(=O)C[C@]2(O)C(=O)Nc3c(Cl)ccc(Cl)c32)cc1 :: inactive
CSc1ccc2c(c1)c(CCN)c(C)n2Cc1ccc(Cl)c(Cl)c1 :: active
C/C(=C(/c1ccccc1)c1ccc(N2C(=O)c3cccc4c(N5CCN(C)CC5)ccc(c34)C2=O)cc1)c1ccccc1 :: inactive
COc1ccc(CNC(=O)[C@H](O)[C@@H](N)Cc2ccccc2)cc1 :: inactive

### Prompt Per the records of this test, what outcome belongs to "COc1ccc(OC)c(/C=C/c2nnc(Nc3ccccc3)o2)c1" ?
### Response inactive

---

System: SN12C renal
Experiment: NCI-60 one-dose screen, 48 h (100 = growth as untreated, 0 = no growth, -100 = all killed)
Conditions: 10 µM unless noted
This is part of a sample that, as a whole, favours compounds with a hit. Of some 83,000 tested, about 20% had one in any assay.
readout-kind: growth (%)
Report only the number, with the unit % understood.

CNCCCC12CCC(c3ccccc31)c1ccccc12 :: 73.4

Read the next record carefully.
### Prompt Which growth is reported for this molecule? "O=c1c2cc(C(F)(F)F)ccc2sc2c(NCCCNCCO)nc3ccccc3c12"
### Response 36.1

---

Tested on: A549/ATCC NSCLC
Experiment: NCI-60 one-dose screen, 48 h (100 = growth as untreated, 0 = no growth, -100 = all killed)
Conditions: 10 µM unless noted
Experimental: Growth inhibition of the A549/ATCC human Non-Small Cell Lung tumor cell line is measured as a screen for anti-cancer activity. Cells are grown in 96 well plates and exposed to the test compound for 48 hours. Compounds are tested at a single concentration, which is 10^-5 M for most compounds. The reported endpoint is percent growth (GI% or GIPRCNT), where numbers from 0 - 100% represent growth inhibition, and numbers from -100% - 0 represent cell death. […]
The panel holds about 83,000 compounds, 20% with a hit somewhere; the sample as a whole holds those more often. The source made the active and inactive calls. The calls were made as follows: active = growth percent below 10; inactive = the rest.
readout-kind: growth

### Prompt Report growth for "COc1ccc(NC(=O)n2nc(/C=C\c3ccc(O)c(OC)c3)cc2/C=C\c2ccc(O)c(OC)c2)cc1" please.
### Response 27.3% (inactive)

### Prompt Lookup "COc1ccc2sc3c(NCCCNCCO)nc4ccccc4c3c(=O)c2c1"
### Response 62.6% (inactive)

### Prompt And then Cc1ccc(C(=O)NN2C(=O)CSC2c2cccc([N+](=O)[O-])c2)cn1 (centres undefined) , what is it?
### Response 92.9% (inactive)

### Prompt And CN1C(=C2C(=O)OC(C)(C)OC2=O)CCC1C(=O)NCc1ccc(Cl)cc1Cl (centres undefined) ?
### Response 79.5% (inactive)

### Prompt Also "C#C[C@]1(O)CC[C@H]2[C@@H]3CC=C4c5sc(Nc6ccccc6)nc5CC[C@]4(C)[C@H]3CC[C@@]21C" , if possible.
### Response 52.9% (inactive)

### Prompt Now consider CCC12CCC[N+]3([O-])CCC4(C(=Nc5ccccc54)C(O)(C(=O)OC)C1)C23 (centres undefined) and answer again.
### Response 114% (inactive)

### Prompt Request: "c1ccc2cc(C[n+]3ccn(CCCCCCCCCCCCn4cc[n+](Cc5ccc6ccccc6c5)c4)c3)ccc2c1"
### Response -74.2% (active)

### Prompt Field entry: "CCOC(=O)/C=C1\S/C(=N\Nc2ccc([N+](=O)[O-])cc2[N+](=O)[O-])N(Cc2ccccc2)C1=O"
### Response 93.2% (inactive)

### Prompt Entry "C[C@]12CC[C@@H]3c4cc(OC(F)F)c(OS(N)(=O)=O)cc4CC[C@H]3[C@@H]1CC[C@@H]2O" please
### Response 29.5% (inactive)
